Values from PubChem BioAssay AID493035

# SYSTEM UNDER TEST: Perilipin-5 (Homo sapiens) + 1-acylglycerol-3-phosphate O-acyltransferase ABHD5 (Homo sapiens) (UniProt Q00G26+Q8WTS1)
# Sequence (Q00G26 whole entry, looked up): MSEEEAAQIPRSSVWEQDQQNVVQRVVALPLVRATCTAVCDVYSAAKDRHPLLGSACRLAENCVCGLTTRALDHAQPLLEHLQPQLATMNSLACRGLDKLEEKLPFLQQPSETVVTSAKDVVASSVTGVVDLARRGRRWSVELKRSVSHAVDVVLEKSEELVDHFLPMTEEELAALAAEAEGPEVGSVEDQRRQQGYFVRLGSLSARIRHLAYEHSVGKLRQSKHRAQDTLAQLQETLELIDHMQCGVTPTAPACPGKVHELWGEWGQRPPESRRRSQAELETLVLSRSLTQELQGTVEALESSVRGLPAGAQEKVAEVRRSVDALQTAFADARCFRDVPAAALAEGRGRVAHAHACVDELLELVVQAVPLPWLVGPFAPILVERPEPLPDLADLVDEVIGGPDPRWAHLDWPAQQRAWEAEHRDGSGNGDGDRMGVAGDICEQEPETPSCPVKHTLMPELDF
# Sequence (Q8WTS1 whole entry, looked up): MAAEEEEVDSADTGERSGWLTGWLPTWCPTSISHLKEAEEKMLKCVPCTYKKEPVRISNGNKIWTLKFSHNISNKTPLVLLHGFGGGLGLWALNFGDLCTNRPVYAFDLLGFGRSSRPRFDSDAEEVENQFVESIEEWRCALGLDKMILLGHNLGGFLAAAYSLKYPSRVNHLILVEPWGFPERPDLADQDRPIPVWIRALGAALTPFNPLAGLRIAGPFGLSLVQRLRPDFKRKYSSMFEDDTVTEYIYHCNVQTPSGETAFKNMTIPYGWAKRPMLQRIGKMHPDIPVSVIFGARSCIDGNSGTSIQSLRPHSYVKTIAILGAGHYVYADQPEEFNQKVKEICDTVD
# TEST SUMMARY: blockers of ABHD5 binding to perilipin-5 – cell lysate, split luciferase complementation, luminescence, NIH validation set, pilot screen (AID 493035);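 also: 0% = DMSO only wells while the 100% control is not stated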
# CONDITION SET: split G. princeps luciferase complementation, lysates, 4 h; at 7.9 µM, stronger effect = higher value
In all, about 2,000 compounds went through this assay and about 45 (2%) were called active. Many of the other results were omitted from the sample, so actives are more common in it than they were.
VALUE TYPE: inhibition (%)
Write the answer as a number in %, unit excluded.

Recorded inhibition, per entry:
| COMPOUND | VALUE TYPE | RECORDED RESULT |
| --- | --- | --- |
| N/C(=N\OC(=O)CCCOc1ccc(Cl)cc1Cl)c1ccccn1 | inhibition | -4.4 |
| CC1=CC(C)(C)N2C(=O)C3(NCCc4c3[nH]c3ccccc43)c3cc(C)cc1c32 (stereo not drawn) | inhibition | -1.07 |

From here, focus on the item given below.
[Q] Record request: inhibition value, item CC(C)[C@H](NC(=O)[C@@H]1CSCN1C(=O)OC(C)(C)C)C(=O)NCC1CCC(C(=O)O)CC1 (stereo partly drawn)
[A] -18.6
